src = paper PMC6155683

ASSAY DETAILS: PK study of the 12 alkaloids in rat plasma after oral administration of ZJ and FZJ extract (LC–MS/MS)
Assay type: in vivo
CONDITIONS: 3.38 g/kg; rat plasma, oral ZJ extract, mean ± SD, n = 6; read-out: Cmax
// reported Cmax per item
Kindly answer with a numeric value in ng/mL, unit omitted.

Example cases with answers are listed next.
MOLECULE: Cn1c(=O)n(CCC2(O)C(=O)Nc3ccccc32)c(=O)c2ccccc21 (stereo not drawn) [wuchuyuamide-I]
VALUE TYPE: Cmax
U: ng/mL
DATA VALUE: 3.45
//
MOLECULE: CCCCC=CCCCCCCCc1cc(=O)c2ccccc2n1C
VALUE TYPE: Cmax
U: ng/mL
DATA VALUE: 24.2

# context switch: different molecule, same Cmax
The measured Cmax associated with O=c1c2c3c(ccc2cc2n1CCc1cc4c(cc1-2)OCO4)OCO3 reads 2.46
